Test: SUPPLEMENTARY: Lipophilicity (log D) Determination by high-throughput shake-flask
Format: physicochemical
Settings: octanol/water
Each record here notes measured logD.
Experimental Readout: logD

1. O=C(COc1ccccc1)N1CCCC[C@@H]1c1nc(-c2ccc(Cl)cc2)no1 :: > 3
2. COc1ccc(Cl)cc1S(=O)(=O)N1CCOc2ccc(C(=O)Nc3ccccc3)cc21 :: > 3
3. O=C(COc1ccccc1)N1CCCC[C@@H]1c1noc(-c2ccc3snnc3c2)n1 :: > 3
4. COc1ccc(Cl)cc1-c1csc([C@H]2CCCCN2C(=O)COc2ccccc2)n1 :: > 4

###

Each record here notes measured solubility kinetic.
Assay: SUPPLEMENTARY: Lyophilisation Solubility Assay (LYSA)
Type: physicochemical
Settings: read-out: Kinetic_solubility
Experimental Readout: solubility kinetic

1. COc1ccc(Cl)cc1S(=O)(=O)Nc1cc(C(=O)Nc2ccccc2)ccc1/C=C/C(=O)O :: > 585 µg/mL
2. CCN1C(=O)CC(C)(C)c2ccc(-c3nc([C@H]4CCCCN4C(=O)COc4ccccc4)no3)cc21 :: < 1 µg/mL
3. CCOC(=O)C1CN(S(=O)(=O)c2cc(Cl)ccc2OC)c2cc(C(=O)Nc3cccc(F)c3)ccc2O1 (stereo not given) :: < 1 µg/mL
4. COc1ccc(Cl)cc1S(=O)(=O)N1CCOc2ccc(C(=O)Nc3ccccc3)cc21 :: < 1 µg/mL
5. O=C(c1nc([C@H]2CCCCN2C(=O)COc2ccccc2)no1)N1CCOCC1 :: > 467 µg/mL
